Hey, just so you know, these numbers are from PubChem BioAssay AID2060912.

System: HUVEC/MSC spheroids viability
Test: Human HUVEC/MSC cell line growth inhibition [KRAS2];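 also: percent of DMSO vehicle control luminescence so 100% = untreated viability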
Conditions: second compound 0.316 µM; first compound 1 µM; active compounds read low
parameter measured: viability, T/C (%)

O=C(c1cc(Cc2n[nH]c(=O)c3ccccc23)ccc1F)N1CCN(C(=O)C2CC2)CC1 + CC1OCC2(CCN(c3cnc(Sc4ccnc(N)c4Cl)c(N)n3)CC2)C1N ... 101
COc1cc2nccc(Oc3ccc(NC(=O)C4(C(=O)Nc5ccc(F)cc5)CC4)cc3)c2cc1OC + C=CC(=O)N1CCN(c2nc(=O)n(-c3c(C)ccnc3C(C)C)c3nc(-c4c(O)cccc4F)c(F)cc23)C(C)C1 ... 80.6
CCN1CCN(Cc2ccc(Nc3ncc(F)c(-c4cc(F)c5nc(C)n(C(C)C)c5c4)n3)nc2)CC1 + C=CC(=O)N1CCN(c2nc(=O)n(-c3c(C)ccnc3C(C)C)c3nc(-c4c(O)cccc4F)c(F)cc23)C(C)C1 ... 123
